Source: paper PMC12864922

# target: TDP-43 (Homo sapiens, UniProt Q13148 1-414)
# Sequence (Q13148 whole entry): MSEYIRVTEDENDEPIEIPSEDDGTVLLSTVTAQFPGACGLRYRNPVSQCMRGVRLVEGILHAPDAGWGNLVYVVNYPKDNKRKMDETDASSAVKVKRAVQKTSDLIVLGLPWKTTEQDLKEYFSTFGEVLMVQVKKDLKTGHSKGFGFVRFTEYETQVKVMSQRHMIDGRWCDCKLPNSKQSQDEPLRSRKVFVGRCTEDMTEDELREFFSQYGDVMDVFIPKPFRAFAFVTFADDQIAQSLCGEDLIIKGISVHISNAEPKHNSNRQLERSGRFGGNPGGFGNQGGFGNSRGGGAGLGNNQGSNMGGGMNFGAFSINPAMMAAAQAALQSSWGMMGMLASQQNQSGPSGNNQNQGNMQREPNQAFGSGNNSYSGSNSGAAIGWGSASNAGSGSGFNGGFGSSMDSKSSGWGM
# experimentSummary: RNA Bind-n-Seq with designed 260-mer pool; 25 mM Tris-HCl, 150 mM KCl, 3 mM MgCl2, BSA (printed 500 mg/mL), 20 units/mL SUPERase IN; pH not stated; 500 nM RNA pool, 1 h, 4 C; TDP-43 5, 50, 500 nM; high values mean tight binding
# experimentalContext: protein: recombinant; tags: SBP (GST cleaved off with PreScission; pGEX-GST-SBP)
Whole data set: some 9,900 sequences, median “r (bound/input frequency ratio)” near 0.7, cut for the highest 2% near 6.5. This is one part of a sample in which the highest values are shown more often than they occur.
endpoint: binding signal

Please look up its binding signal: ENSMUSG00000061578.627|Ksr2 (ssRNA) RNA: GGGAGUUCUACAGUCCGACGAUCGCUUCGAUAUCCGCAUGCUAAGGGAGCAACCUAUAGGAAAUGCAAAGGCUUAGAGGGGACGGACAGCUCCCUGACCCUGGAUGGCCAGGAAUGGUGCUAGCUAGGGUGUGAGCCAAGCCCUUGAGGCUACUGUGAGUUAUGAGAUGUGUCCAACCCUCAGCCCACAGACUGCAUAUGCCCCAGGACAGCUGUGAAGGUGACCCAAUACAAAAUCGUAAACUAACUUAAAACCAUUAAGGGUUUUUGUUUUGUUGUUGUUUGCUGGCUUUUUGUUUUUUGGCUCUUGCGGUCGCACUAGUGUGGAAUUCUCGGGUGUCAAGG
0.542 R (bound/input frequency ratio)

Then what about the binder ENSMUSG00000042529.426|Kcnj12|5:15;38:43;200:204 (ssRNA) RNA: GGGAGUUCUACAGUCCGACGAUCGCUUCGAUAUCCGCAUGCUACAGGCACACACAUACUGAAUGUCAGUGGCUUGGGUGCACACACGAGAGAGAGAGAGAGAGAGAGAGAGAGAGAGAGAGAGAGAGAGAGAGAGAGCUGCACAGGAUGAAGCAGCUGCCCUGAGCCCAUCUGGUGCUGUGCACCUGGUCCUUGUCCAGCCGAGGGCCUGGGGGCAGAAGAACACACCAUAGGGAGGCCCUUCAUACGGUGUCUGCCCUAUGUGAGGUCAUAGAAUGUUAAAUCUAUUUUAAACGGUGAAACUCUCUUGCGGUCGCACUAGUGUGGAAUUCUCGGGUGUCAAGG ?
5.67 R (bound/input frequency ratio)
